# Target: Progesterone receptor (Homo sapiens)
# Sequence (P06401 whole entry): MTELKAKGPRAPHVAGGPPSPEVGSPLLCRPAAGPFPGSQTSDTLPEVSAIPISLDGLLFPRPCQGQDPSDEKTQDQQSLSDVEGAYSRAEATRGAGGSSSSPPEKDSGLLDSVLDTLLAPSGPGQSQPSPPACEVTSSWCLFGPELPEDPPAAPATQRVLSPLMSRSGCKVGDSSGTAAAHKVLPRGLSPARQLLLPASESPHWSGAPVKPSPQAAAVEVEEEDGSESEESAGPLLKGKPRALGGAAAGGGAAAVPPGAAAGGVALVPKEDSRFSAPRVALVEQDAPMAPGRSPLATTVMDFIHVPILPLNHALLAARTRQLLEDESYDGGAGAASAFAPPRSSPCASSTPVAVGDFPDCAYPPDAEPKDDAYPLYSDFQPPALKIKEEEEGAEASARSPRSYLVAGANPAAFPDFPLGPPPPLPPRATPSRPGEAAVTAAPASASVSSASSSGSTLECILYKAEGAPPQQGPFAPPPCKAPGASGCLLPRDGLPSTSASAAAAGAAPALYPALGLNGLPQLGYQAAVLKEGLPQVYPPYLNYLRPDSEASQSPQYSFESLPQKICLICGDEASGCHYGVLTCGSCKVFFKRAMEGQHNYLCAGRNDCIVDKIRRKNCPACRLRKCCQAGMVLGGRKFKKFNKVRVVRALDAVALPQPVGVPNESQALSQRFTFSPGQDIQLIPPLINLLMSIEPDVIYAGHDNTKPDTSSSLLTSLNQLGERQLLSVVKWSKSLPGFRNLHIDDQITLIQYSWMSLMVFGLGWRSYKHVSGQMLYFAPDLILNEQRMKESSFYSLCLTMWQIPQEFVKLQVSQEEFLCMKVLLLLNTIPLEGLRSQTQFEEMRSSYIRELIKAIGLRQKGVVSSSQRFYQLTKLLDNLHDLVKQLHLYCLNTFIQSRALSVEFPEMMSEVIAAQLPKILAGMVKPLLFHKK
# Experiment Summary: Dissociation constant for [3H]ORG2058 at human progesterone receptor at 303 K
Parameter: Kd (nM)
The figure you give is taken to be in nM; do not add the unit.

What the record says about CC[C@@H]1C[C@H]2[C@@H]3CCC4=CC(=O)CC[C@@H]4[C@H]3CC[C@]2(C)[C@H]1C(=O)CO : Kd is 4.13

---

# Target: Progesterone receptor (Homo sapiens)
# Experiment Summary: Dissociation constant for [3H]-ORG2058 at human progesterone receptor at 310K
Parameter: Kd (nM)
Lab book: enter the figure in nM, no units written.

Data point: CC[C@@H]1C[C@H]2[C@@H]3CCC4=CC(=O)CC[C@@H]4[C@H]3CC[C@]2(C)[C@H]1C(=O)CO ; Kd = 5.42

Cited source: ChEMBL document CHEMBL1142733
